- system: E3 ubiquitin-protein ligase XIAP (Homo sapiens)
- assay-info: small molecules binding XIAP protein – biophysical, small-molecule microarray, fluorescence 635 nm, primary screen (AID 1181);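 further: score merges 667 nm emission and signal to noise over triplicate slides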
- condition-notes: higher = more signal
Consider the following compounds; for each one, report its composite z-score.
One number for each entry.

Study these solved cases before continuing.
- compound: "C=CC[C@@]1(C(=O)OC)N=C(c2ccc(OCCCO)cc2)O[C@@H]1c1ccccc1N=[N+]=[N-]"
  system: "E3 ubiquitin-protein ligase XIAP (Homo sapiens)"
  composite z-score: 0.0142
- compound: "[N-]=[N+]=Nc1ccccc1[C@H]1OC(c2ccc(OCCCO)cc2)=N[C@@]1(Cc1ccccc1)C(=O)NCC(O)CO (stereo partly drawn)"
  system: "E3 ubiquitin-protein ligase XIAP (Homo sapiens)"
  composite z-score: 0.0487
- compound: "COc1ccc(C(O)C2C=CC3C(=O)N(c4ccccc4)C(=O)C3N2Nc2ccc([N+](=O)[O-])cc2)c2ccccc12 (stereo not drawn)"
  system: "E3 ubiquitin-protein ligase XIAP (Homo sapiens)"
  composite z-score: 0.312

List the reported composite z-score of each compound below.
1. C=CCOC(=O)[C@@H]1[C@H]2C(=O)O[C@H](c3ccccc3)[C@H](c3ccccc3)N2[C@H](c2ccc(OCCOC(=O)[C@H]3C[C@H]4C(=O)NCC(=O)N4[C@H]3c3cccc(OCCO)c3)cc2)[C@@]12C(=O)Nc1ccc(I)cc12
2. CC(C)=CCCC=C(C)C(O)C1C=CC2C(=O)N(c3ccccc3)C(=O)C2N1Nc1ccc(C#N)cc1 (stereo not drawn)
3. NC(=O)N1C(=O)C2C(C1=O)C1C=C(CCCO)C2C(c2ccc(CN3CCCC3)cc2)N1Cc1sc2ccccc2c1Cl (stereo not drawn)
4. CCCCN1CC=CC23O[C@@H]4/C=C\CCCOC(=O)C4[C@H]2C(=O)N(C(CO)C(C)C)[C@@H]3C1=O (stereo partly drawn)
5. CC(C)C[C@H]1NC(=O)C([C@@H](C)OCc2ccccc2)NC(=O)[C@@]23C(=O)N[C@@H](Cc4ccccc4)C2[C@H](C)[C@@]2(C)O[C@H]2C3/C=C/C/C=C\CNC1=O (stereo partly drawn)
6. COCCOC(=O)N1C(=O)[C@@]2(c3cc(C#CCC(C(=O)OC)C(=O)OC)ccc31)[C@H](C(N)=O)[C@H]1C(=O)O[C@H](c3ccccc3)[C@H](c3ccccc3)N1[C@@H]2c1ccc(O)cc1
7. Cc1ccc(N2C(=O)c3ccccc3[C@](C)(C(=O)NCCCN(C)C)[C@@H]2c2ccc(CO)cc2)nc1
8. CN(C)C(=O)[C@@]1(Cc2ccccc2CN=[N+]=[N-])COC(c2ccc(OCCCO)cc2)=N1

Return:
1: -0.117; 2: 0.146; 3: -0.167; 4: -0.0393; 5: 0.172; 6: 0.0727; 7: -0.158; 8: 0.153

List the reported composite z-score of each compound below.
1. C=CC[C@@]1(C(=O)N(C)C)N=C(c2ccc(OCCCO)cc2)O[C@@H]1c1ccccc1CN=[N+]=[N-]
2. O=C(NCCN1CCOCC1)[C@@H]1c2ccccc2C(=O)N(Cc2ccccc2C(F)(F)F)[C@H]1c1ccc(CO)cc1
3. [N-]=[N+]=Nc1ccccc1C[C@@]1(C(=O)NCC(O)CO)N=C(c2ccc(OCCCO)cc2)O[C@@H]1c1ccccc1 (stereo partly drawn)
4. CN(C)CCCCNC(=O)[C@H]1C[C@H]2C(=O)NCC(=O)N2[C@H]1c1ccc(O)cc1
5. C[C@@H]1NC(=O)C([C@@H](C)OCc2ccccc2)NC(=O)[C@@]23C(=O)N[C@@H](Cc4ccccc4)C2[C@H](C)[C@@]2(C)O[C@H]2C3/C=C/C/C=C\CNC1=O (stereo partly drawn)

Return:
1: -0.163; 2: 0.0487; 3: 0.0049; 4: 0.147; 5: -0.291

List the reported composite z-score of each compound below.
1. CN(C)CCCC[C@@H]1NC(=O)[C@@H]2C[C@H](C(=O)NCCCCCN)[C@H](c3cccc(OCCO)c3)N2C1=O
2. C[C@@H]1ON(c2ccc(I)cc2)[C@H](c2cccc(NC(=O)OCC3c4ccccc4-c4ccccc43)c2)[C@H]1C(=O)N1C(=O)OC[C@H]1Cc1ccccc1
3. COC(=O)[C@]1(Cc2ccccc2)N=C(c2ccc(OCCCO)cc2)O[C@@H]1c1ccccc1CN=[N+]=[N-]
4. C[N+](C)(C)CCCCNC(=O)[C@H]1C[C@H]2C(=O)N[C@@H](Cc3ccccc3)C(=O)N2[C@H]1c1cccc(OCCO)c1
5. COc1ccc([Si](C)(C)[C@H]2[C@H](CCO)O[C@@]3(C(=O)N(Cc4ccc(NC(=O)[C@H](C)O)cc4)c4ccccc43)[C@@H]2C)cc1
6. CCCCCCc1nc(-c2ccc(-c3ccc(Cl)c(Cl)c3)o2)cc2c1[Si](C(C)C)(C(C)C)OC2

Return:
[-0.184, -0.412, 0.0159, 0.459, -0.0592, -0.0233]

List the reported composite z-score of each compound below.
1. CN(C)C(=O)[C@]1(Cc2ccccc2)N=C(c2ccc(OCCCO)cc2)O[C@@H]1c1ccccc1CN=[N+]=[N-]
2. O=C(NCC(O)CO)C1N=C(c2ccc(OCCCO)cc2)N(c2ccccc2)O1 (stereo not drawn)
3. C=CC[C@]1(C(=O)NCC(O)CO)COC(c2ccc(OCCCO)cc2)=N1 (stereo partly drawn)
4. CCCC=C(CCC)[C@@H](NC(=O)OCC(C)C)c1ccc(C(=O)OC)cc1
5. C=CCOC(=O)[C@@H]1[C@H]2C(=O)O[C@H](c3ccccc3)[C@H](c3ccccc3)N2[C@H](c2ccc(OCCOC(=O)[C@H]3C[C@H]4C(=O)N5CCC[C@H]5C(=O)N4[C@H]3c3cccc(OCCO)c3)cc2)[C@@]12C(=O)Nc1ccc(I)cc12
6. N#Cc1ccc(NN2C(C(O)C3CC=CCC3)C=CC3C(=O)N(c4ccccc4)C(=O)C32)cc1 (stereo not drawn)

Return:
0.0651
-0.142
-0.266
0.0651
0.0003
-0.0848
